Below: a set of entries, each annotated with reported viability, T/C.
# Test system: 292921-168-R tumor spheroid viability
# Method: Anticancer human tumor 292921-168-R patient-derived pancreatic carcinoma cell line growth inhibition
# Study Conditions: second compound 0.03 µM; first compound 0.0316 µM; stronger effect = lower value; spheroids with HUVEC and MSC

{"columns": ["Compound", "Subject Of Test", "viability, T/C"],
 "data": [
  ["CC(C)n1c(=O)n(C)c2cnc3cc(F)c(-c4ccc(OCCCN5CCCCC5)nc4)cc3c21 + CC[C@@]1(O)C(=O)OCc2c1cc1n(c2=O)Cc2cc3c(CN(C)C)c(O)ccc3nc2-1", "292921-168-R tumor spheroid viability", "20.2%"],
  ["CC1COCCN1c1cc(-c2ccnn2C)c2ccnc(-c3ccn[nH]3)c2n1 (stereo unspecified) + CC[C@@]1(O)C(=O)OCc2c1cc1n(c2=O)Cc2cc3c(CN(C)C)c(O)ccc3nc2-1", "292921-168-R tumor spheroid viability", "8.44%"],
  ["COc1cc(C)[nH]c(=O)c1CN1CCc2c(Cl)cc(C(OC)C3COC3)c(Cl)c2C1=O (stereo unspecified) + CC[C@@]1(O)C(=O)OCc2c1cc1n(c2=O)Cc2cc3c(CN(C)C)c(O)ccc3nc2-1", "292921-168-R tumor spheroid viability", "50.6%"],
  ["Cc1cc(C)c(CNC(=O)c2cc(-c3ccc(CN4CCOCC4)cc3)cc3c2cnn3C2CCCC2)c(=O)[nH]1 + CC[C@@]1(O)C(=O)OCc2c1cc1n(c2=O)Cc2cc3c(CN(C)C)c(O)ccc3nc2-1", "292921-168-R tumor spheroid viability", "32.5%"],
  ["COc1ccc([C@@H](O)c2cc(-c3ncnc4cc(N5CCOCC5)ccc34)c(F)cc2Cl)nn1 + CC[C@@]1(O)C(=O)OCc2c1cc1n(c2=O)Cc2cc3c(CN(C)C)c(O)ccc3nc2-1", "292921-168-R tumor spheroid viability", "41.8%"],
  ["[2H]c1nc(C)nc([2H])c1-c1cc(NC[C@@H](C)c2cccc3c(C(=O)NC)ccnc23)ncn1 + CC[C@@]1(O)C(=O)OCc2c1cc1n(c2=O)Cc2cc3c(CN(C)C)c(O)ccc3nc2-1", "292921-168-R tumor spheroid viability", "49.2%"]
]}

---

# Test system: 292921-168-R tumor spheroid viability
# Method: Anticancer human tumor 292921-168-R cell line growth inhibition;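 also: spheroids exposed to compounds for 7 days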
# Study Conditions: second compound 3.16 µM; first compound 0.949 µM; stronger effect = lower value; spheroids with HUVEC and MSC
Readout Name: viability, T/C (%)

{"columns": ["Compound", "Readout Name", "Measured Number"],
 "data": [
  ["Cn1ncnc1[C@H]1c2n[nH]c(=O)c3cc(F)cc(c23)N[C@@H]1c1ccc(F)cc1 + Cn1nnc2c(C(N)=O)ncn2c1=O", "viability, T/C", 32],
  ["Cc1sc2c(c1C)C(c1ccc(Cl)cc1)=NC(CC(=O)Nc1ccc(O)cc1)c1nnc(C)n1-2 (centres undefined) + Cn1nnc2c(C(N)=O)ncn2c1=O", "viability, T/C", 68.9],
  ["O=C(c1cc(Cc2n[nH]c(=O)c3ccccc23)ccc1F)N1CCN(C(=O)C2CC2)CC1 + Cn1nnc2c(C(N)=O)ncn2c1=O", "viability, T/C", 94],
  ["CNCc1ccc(-c2cc(-c3nc(-c4ccc(S(=O)(=O)C(C)C)cc4)cnc3N)on2)cc1 + Cn1nnc2c(C(N)=O)ncn2c1=O", "viability, T/C", 22]
]}

---

# Tested on: 292921-168-R tumor spheroid viability
# Method: Anticancer human tumor 292921-168-R cell line growth inhibition; active = viability on the fitted dose curve at most 10% of control; inactive = the rest;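 also: spheroids exposed to compounds for 7 days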
# Study Conditions: second compound 100 µM; first compound 3 µM; spheroids with HUVEC and MSC
Outcome codes: Yes for active, No for inactive

{"columns": ["Molecule", "Answer Label"],
 "data": [
  ["Cn1ncnc1[C@H]1c2n[nH]c(=O)c3cc(F)cc(c23)N[C@@H]1c1ccc(F)cc1 + Cn1nnc2c(C(N)=O)ncn2c1=O", "Yes"],
  ["CNCc1ccc(-c2cc(-c3nc(-c4ccc(S(=O)(=O)C(C)C)cc4)cnc3N)on2)cc1 + Cn1nnc2c(C(N)=O)ncn2c1=O", "Yes"],
  ["O=C(c1cc(Cc2n[nH]c(=O)c3ccccc23)ccc1F)N1CCN(C(=O)C2CC2)CC1 + Cn1nnc2c(C(N)=O)ncn2c1=O", "No"],
  ["Cc1sc2c(c1C)C(c1ccc(Cl)cc1)=NC(CC(=O)Nc1ccc(O)cc1)c1nnc(C)n1-2 (centres undefined) + Cn1nnc2c(C(N)=O)ncn2c1=O", "No"]
]}

---

# Test system: 292921-168-R tumor spheroid viability
# Method: Anticancer human tumor 292921-168-R cell line growth inhibition;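 also: spheroids exposed to compounds for 7 days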
# Study Conditions: second compound 94.9 pM; first compound 10 µM; stronger effect = lower value; spheroids with HUVEC and MSC
Response field label: string, one of t (viability, T/C strictly below 80%) or f.

{"columns": ["Molecule", "Subject Of Test", "Answer Label"],
 "data": [
  ["[2H]c1nc(C)nc([2H])c1-c1cc(NC[C@@H](C)c2cccc3c(C(=O)NC)ccnc23)ncn1 + COc1cc2c(cc1O)CCNC21CSC2c3c(OC(C)=O)c(C)c4c(c3C(COC1=O)N1C(O)C3Cc5cc(C)c(OC)c(O)c5C(C21)N3C)OCO4", "292921-168-R tumor spheroid viability", "f"],
  ["CC(C)n1c(=O)n(C)c2cnc3cc(F)c(-c4ccc(OCCCN5CCCCC5)nc4)cc3c21 + COc1cc2c(cc1O)CCNC21CSC2c3c(OC(C)=O)c(C)c4c(c3C(COC1=O)N1C(O)C3Cc5cc(C)c(OC)c(O)c5C(C21)N3C)OCO4", "292921-168-R tumor spheroid viability", "t"],
  ["COc1ccc([C@@H](O)c2cc(-c3ncnc4cc(N5CCOCC5)ccc34)c(F)cc2Cl)nn1 + COc1cc2c(cc1O)CCNC21CSC2c3c(OC(C)=O)c(C)c4c(c3C(COC1=O)N1C(O)C3Cc5cc(C)c(OC)c(O)c5C(C21)N3C)OCO4", "292921-168-R tumor spheroid viability", "t"],
  ["COc1cc(C)[nH]c(=O)c1CN1CCc2c(Cl)cc(C(OC)C3COC3)c(Cl)c2C1=O (stereo unspecified) + COc1cc2c(cc1O)CCNC21CSC2c3c(OC(C)=O)c(C)c4c(c3C(COC1=O)N1C(O)C3Cc5cc(C)c(OC)c(O)c5C(C21)N3C)OCO4", "292921-168-R tumor spheroid viability", "f"],
  ["CC1COCCN1c1cc(-c2ccnn2C)c2ccnc(-c3ccn[nH]3)c2n1 (stereo unspecified) + COc1cc2c(cc1O)CCNC21CSC2c3c(OC(C)=O)c(C)c4c(c3C(COC1=O)N1C(O)C3Cc5cc(C)c(OC)c(O)c5C(C21)N3C)OCO4", "292921-168-R tumor spheroid viability", "t"]
]}

---

# System: 292921-168-R tumor spheroid viability
# Method: Anticancer human tumor 292921-168-R cell line growth inhibition;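 also: spheroids exposed to compounds for 7 days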
# Study Conditions: second compound 0.0003 µM; first compound 0.0949 µM; stronger effect = lower value; spheroids with HUVEC and MSC
# Protocol: Multicellular complex tumor spheroid response to DNA repair inhibitors in combination with DNA-damaging drugs This study explores the anticancer activities of DNA-damaging drugs and inhibitors of DNA damage repair, both as single agents and in combinations. […] Twenty-six patient-derived or established malignant cell lines were evaluated representing sarcoma, melanoma, small cell lung cancer (SCLC), non-small cell lung cancer (NSCLC), as well as bladder, ovarian and pancreatic cancers. […]

{"columns": ["Compound", "Subject Of Test", "viability, T/C"],
 "data": [
  ["CNCc1ccc(-c2cc(-c3nc(-c4ccc(S(=O)(=O)C(C)C)cc4)cnc3N)on2)cc1 + COc1cc2c(cc1O)CCNC21CSC2c3c(OC(C)=O)c(C)c4c(c3C(COC1=O)N1C(O)C3Cc5cc(C)c(OC)c(O)c5C(C21)N3C)OCO4", "292921-168-R tumor spheroid viability", "28.6%"],
  ["O=C(c1cc(Cc2n[nH]c(=O)c3ccccc23)ccc1F)N1CCN(C(=O)C2CC2)CC1 + COc1cc2c(cc1O)CCNC21CSC2c3c(OC(C)=O)c(C)c4c(c3C(COC1=O)N1C(O)C3Cc5cc(C)c(OC)c(O)c5C(C21)N3C)OCO4", "292921-168-R tumor spheroid viability", "48%"],
  ["Cn1ncnc1[C@H]1c2n[nH]c(=O)c3cc(F)cc(c23)N[C@@H]1c1ccc(F)cc1 + COc1cc2c(cc1O)CCNC21CSC2c3c(OC(C)=O)c(C)c4c(c3C(COC1=O)N1C(O)C3Cc5cc(C)c(OC)c(O)c5C(C21)N3C)OCO4", "292921-168-R tumor spheroid viability", "24.2%"],
  ["Cc1sc2c(c1C)C(c1ccc(Cl)cc1)=NC(CC(=O)Nc1ccc(O)cc1)c1nnc(C)n1-2 (centres undefined) + COc1cc2c(cc1O)CCNC21CSC2c3c(OC(C)=O)c(C)c4c(c3C(COC1=O)N1C(O)C3Cc5cc(C)c(OC)c(O)c5C(C21)N3C)OCO4", "292921-168-R tumor spheroid viability", "63.2%"]
]}

Values from PubChem BioAssay AID1845196
